- Test system: HCT15 (high Pgp expression)
- RUN DESCRIPTION: Cell viability assay (crystal violet staining), payloads, HCT15
- Format: cell-based
- CONDITION LABEL: HCT15, 48 hours incubation; read-out: IC 50 HCT15
- Protocol: The cytotoxic activity of A1B1 cytolysin and MMAE payloads was analyzed via cell-viability assay using the colorectal cancer cell lines HCT15 (high Pgp expression) and HCT116 (low Pgp expression). The day before the assay, cells were seeded and cultivated overnight at 37 °C. Titration of the payloads diluted in medium was added to the cells and incubated for 48 hours at 37 °C. Finally, cell viability was analyzed by crystal violet staining.
Non-standard residues stand in square brackets, D forms with d. Residues, ends and D or L forms follow the SMILES beside them. *: point of attachment. Dolaproine = CO[C@@H]([C@@H]1CCCN1)[C@@H](C)C(=O)O; Dil = CC[C@H](C)[C@H](NC)[C@@H](CC(=O)O)OC; X1 = C[C@@H](N*)[C@@H](O)c1ccccc1; NMeV = CN[C@H](C(=O)O)C(C)C
ASSAY READOUT: pIC50
Give bare numbers, as −log10 of the molar value.

Reported pIC50 for CC[C@H](C)[C@@H]([C@@H](CC(=O)N1CCC[C@H]1[C@H](OC)[C@@H](C)C(=O)N[C@H](C)[C@@H](O)c1ccccc1)OC)N(C)C(=O)[C@@H](NC(=O)[C@@H](NC)C(C)C)C(C)C [MMAE, Monomethyl auristatin E] (H-[NMeV]V[Dil][Dolaproine]-X1) : what is it? 7.40
